Provide the reported EC50 of each item.
molecular target: human GHSR1a (Homo sapiens, UniProt Q92847); experiment: Aequorin bioluminescence functional assay (intracellular calcium mobilization) in 293AEQ17/GHSR1a cells; conditions: aequorin bioluminescence, HEK-293 cells expressing hGHSR1a; three separate assays
Sequence (Q92847 whole entry): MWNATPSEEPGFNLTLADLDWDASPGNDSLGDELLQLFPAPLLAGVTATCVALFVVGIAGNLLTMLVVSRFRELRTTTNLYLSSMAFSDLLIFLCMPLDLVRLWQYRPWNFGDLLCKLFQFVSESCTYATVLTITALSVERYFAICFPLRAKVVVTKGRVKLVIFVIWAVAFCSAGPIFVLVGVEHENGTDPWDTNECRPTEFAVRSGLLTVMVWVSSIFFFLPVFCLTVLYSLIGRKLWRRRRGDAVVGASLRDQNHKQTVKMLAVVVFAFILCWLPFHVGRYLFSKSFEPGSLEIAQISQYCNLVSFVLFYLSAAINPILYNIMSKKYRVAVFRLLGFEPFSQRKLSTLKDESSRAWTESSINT
Where a SMILES comes first, the peptide text is derived from it. The star is where a group is joined. Octanoyl = CCCCCCCC(=O)*
Respond with a number, then the unit of measure.

Note to self: EC50 recorded for CCCCCCCC(=O)OC[C@H](NC(=O)[C@H](CO)NC(=O)CN)C(=O)N[C@@H](Cc1ccccc1)C(N)=O [Compound 22, GSXF-NH2] (H-GSS(Octanoyl)F-NH2) was 0.072 µM

Note to self: EC50 recorded for CCCCCCCC(=O)OC[C@H](NC(=O)[C@H](CO)NC(C)=O)C(=O)N[C@@H](Cc1ccccc1)C(=O)N[C@@H](CC(C)C)C(N)=O [Compound 23, Ac-SXFL-NH2] (Ac-SS(Octanoyl)FL-NH2) was 1.15 µM

Note to self: EC50 recorded for CCCCCCCC(=O)OC[C@H](NC(C)=O)C(=O)N[C@@H](Cc1ccccc1)C(=O)N[C@@H](CC(C)C)C(N)=O [Compound 25, Ac-XFL-NH2] (Ac-Ser(Octanoyl)-Phe-Leu-NH2) was 2.5 µM

* * *

target: human GHSR1a (Homo sapiens, UniProt Q92847); test: Aequorin bioluminescence functional assay (intracellular calcium mobilization) in 293AEQ17/GHSR1a cells; assay type: cell-based; details: at 10 μM, relative to ghrelin; read-out: Functional Assay % activation at 10 μM relative to ghrelin
Where a SMILES comes first, the peptide text is derived from it. The star is where a group is joined. Octanoyl = CCCCCCCC(=O)*
readout.kind: activation at 10 µM (%)
State just the number; it will be interpreted in %.

Note to self: activation at 10 µM recorded for CCCCCCCC(=O)OC[C@H](NC(=O)[C@H](CO)NC(=O)CN)C(=O)N[C@@H](Cc1ccccc1)C(=O)N[C@@H](CC(C)C)C(=O)N[C@@H](CO)C(=O)N1CCC[C@H]1C(=O)N[C@@H](CCC(=O)O)C(=O)N[C@@H](Cc1c[nH]cn1)C(=O)N[C@@H](CCC(N)=O)C(=O)N[C@@H](CCCNC(=N)N)C(=O)N[C@H](C(=O)N[C@@H](CCC(N)=O)C(=O)N[C@@H](CCC(N)=O)C(N)=O)C(C)C [Compound 13, GSXFLSPEHQRVQQ] was 97

Note to self: activation at 10 µM recorded for CCCCCCCC(=O)OC[C@H](NC(=O)[C@H](CO)NC(C)=O)C(=O)N[C@@H](Cc1ccccc1)C(=O)N[C@@H](CC(C)C)C(N)=O [Compound 23, Ac-SXFL-NH2] (Ac-SS(Octanoyl)FL-NH2) was 30

Note to self: activation at 10 µM recorded for CCCCCCCC(=O)NC[C@H](NC(=O)[C@H](CO)NC(=O)CN)C(=O)N[C@@H](Cc1ccccc1)C(=O)N[C@@H](CC(C)C)C(=O)N[C@@H](CO)C(=O)N1CCC[C@H]1C(=O)N[C@@H](CCC(=O)O)C(=O)N[C@@H](Cc1c[nH]cn1)C(=O)N[C@@H](CCC(N)=O)C(=O)N[C@@H](CCCNC(=N)N)C(=O)N[C@H](C(=O)N[C@@H](CCC(N)=O)C(=O)N[C@@H](CCC(N)=O)C(=O)O)C(C)C [Compound 14] was 102
